Tested on: BE-13 (T-Lymphoblastic Leukemia);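 further: after 72 h of two-drug dosing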
Assay: Bliss excess, mean over the matrix (fraction); higher = more synergy
Bliss excess for assorted compounds
Lab note: jot down the number only; don't add units.

See these solved cases before continuing.
1) CN(C)CCCOc1ccc(-c2ccc3ncc4c(c3c2)n(C2CCOCC2)c(=O)n4C)cn1 [AZD0156] + O=C(c1cc(Cc2n[nH]c(=O)c3ccccc23)ccc1F)N1CCN(C(=O)C2CC2)CC1 [Olaparib] (first compound max 3 µM, partner max 3 µM): 0.0894
2) CCN(CCO)CCCOc1ccc2c(Nc3cc(CC(=O)Nc4cccc(F)c4)[nH]n3)ncnc2c1 [AZD2811] + O=C(c1cc(Cc2n[nH]c(=O)c3ccccc23)ccc1F)N1CCN(C(=O)C2CC2)CC1 [Olaparib] (first compound max 1 µM, 7x7, partner max 10 µM): -0.0163
3) C=CCn1c(=O)c2cnc(Nc3ccc(N4CCN(C)CC4)cc3)nc2n1-c1cccc(C(C)(C)O)n1 [AZD1775] + O=C(c1cc(Cc2n[nH]c(=O)c3ccccc23)ccc1F)N1CCN(C(=O)C2CC2)CC1 [Olaparib] (first compound max 1 µM, partner max 10 µM): -0.0409

With those in mind, consider the next compound.
[Q] Find the measured Bliss excess of COc1nnc2ccc(N3CCC(c4ccc(OCCN5CCN(C)C(=O)[C@H]5C)cc4)CC3)nn12 [AZD5153] + C[C@@H]1COCCN1C2=NC(=NC(=C2)C3(CC3)[S@](=N)(=O)C)C4=C5C=CNC5=NC=C4 [AZD6738] (first compound max 1 µM, 7x7, partner max 10 µM) and report it.
[A] -0.0227

====

combination Emax for assorted molecules
Test system: YAPC (Pancreatic Carcinoma)
Assay: combination Emax (second highest fraction inhibited in the dose matrix, 72 h); higher = more inhibition; extreme values may be limits of the assay
Lab note: jot down the number only; don't add units.

See these solved cases before continuing.
1) CC1(C)CCC(CN2CCN(c3ccc(C(=O)NS(=O)(=O)c4ccc(NCC5CCOCC5)c([N+](=O)[O-])c4)c(Oc4cnc5[nH]ccc5c4)c3)CC2)=C(c2ccc(Cl)cc2)C1 [Venetoclax] + CCN(CCO)CCCOc1ccc2c(Nc3cc(CC(=O)Nc4cccc(F)c4)[nH]n3)ncnc2c1 [AZD2811] (first compound max 1 µM, 7x7, partner max 1 µM): 0.157
2) Cc1nc(-c2cn3c(n2)-c2ccc(-c4cnn(C(C)(C)C(N)=O)c4)cc2OCC3)n(C(C)C)n1 [Taselisib] + O=C(Nc1ccc2[nH]nc(-c3ccncc3)c2c1)[C@@H]1CCN(CC(=O)N2CCN(c3ccc(-c4ncccn4)cc3)CC2)C1 [SCH772984] (first compound max 10 µM, 7x7, partner max 5 µM): 0.701
3) CS(=O)(=O)CCNCc1ccc(-c2ccc3ncnc(Nc4ccc(OCc5cccc(F)c5)c(Cl)c4)c3c2)o1 [Lapatinib] + Cn1cnc2c(F)c(Nc3ccc(Br)cc3Cl)c(C(=O)NOCCO)cc21 [Selumetinib] (first compound max 10 µM, 7x7, partner max 10 µM): 0.386
4) COc1cccc(OCCCN)c1-c1cc(Nc2cnc(C#N)cn2)n[nH]1 [Prexasertib] + CN(C)CCCOc1ccc(-c2ccc3ncc4c(c3c2)n(C2CCOCC2)c(=O)n4C)cn1 [AZD0156] (first compound max 1 µM, 7x7, partner max 1 µM): 0.559
5) Cc1cc2ncnn2cc1Nc1ncc2c(n1)n(C1CCOCC1)c(=O)n2C [AZD7648] + COc1cc([C@@H]2c3cc4c(cc3[C@@H](O[C@@H]3O[C@@H]5CO[C@@H](C)O[C@H]5[C@H](O)[C@H]3O)[C@H]3COC(=O)[C@H]23)OCO4)cc(OC)c1O [Etoposide] (first compound max 10 µM, 7x7, partner max 10 µM): 0.531
6) CC1(C)CCC(CN2CCN(c3ccc(C(=O)NS(=O)(=O)c4ccc(NCC5CCOCC5)c([N+](=O)[O-])c4)c(Oc4cnc5[nH]ccc5c4)c3)CC2)=C(c2ccc(Cl)cc2)C1 [Venetoclax] + COc1cc(Nc2ncc3c(n2)-c2ccc(Cl)cc2C(c2c(F)cccc2OC)=NC3)ccc1C(=O)O [Alisertib] (first compound max 1 µM, 7x7, partner max 10 µM): 0.142

With those in mind, consider the next molecule.
[Q] Find the measured combination Emax of COc1nnc2ccc(N3CCC(c4ccc(OCCN5CCN(C)C(=O)[C@H]5C)cc4)CC3)nn12 [AZD5153] + CCN(CCO)CCCOc1ccc2c(Nc3cc(CC(=O)Nc4cccc(F)c4)[nH]n3)ncnc2c1 [AZD2811] (first compound max 1 µM, 7x7, partner max 1 µM) and report it.
[A] 0.342

====

System: MPP-89 (Mesothelioma)
Test: combination Emax (second highest fraction inhibited in the dose matrix, 72 h); higher = more inhibition; extreme values may be limits of the assay
PROPERTY NAME: combination Emax

[Q] Find the measured combination Emax of C=CCn1c(=O)c2cnc(Nc3ccc(N4CCN(C)CC4)cc3)nc2n1-c1cccc(C(C)(C)O)n1 [AZD1775] + C1CN(CCC1(C(=O)N[C@@H](CCO)C2=CC=C(C=C2)Cl)N)C3=NC=NC4=C3C=CN4 [Capivasertib] (first compound max 3 µM, partner max 3 µM) and report it.
[A] 0.685

[Q] Find the measured combination Emax of C[C@@H](c1ccc2nccn2c1)n1nnc2ncc(-c3cnn(C)c3)nc21 [Savolitinib] + CC1(C)CCC(CN2CCN(c3ccc(C(=O)NS(=O)(=O)c4ccc(NCC5CCOCC5)c([N+](=O)[O-])c4)c(Oc4cnc5[nH]ccc5c4)c3)CC2)=C(c2ccc(Cl)cc2)C1 [Venetoclax] (first compound max 1 µM, 7x7, partner max 1 µM) and report it.
[A] 0.261

[Q] Find the measured combination Emax of NC1(C(=O)N[C@@H](CCO)c2ccc(Cl)cc2)CCN(c2ncnc3[nH]ccc23)CC1 [Capivasertib] + COc1nnc2ccc(N3CCC(c4ccc(OCCN5CCN(C)C(=O)[C@H]5C)cc4)CC3)nn12 [AZD5153] (first compound max 10 µM, 7x7, partner max 1 µM) and report it.
[A] 0.495

====

Tested on: CAL-72 (Osteosarcoma)
Assay: combination Emax (second highest fraction inhibited in the dose matrix, 72 h); higher = more inhibition; extreme values may be limits of the assay
PROPERTY NAME: combination Emax
Lab note: jot down the number only; don't add units.

See these solved cases before continuing.
1) O=C(c1cc(Cc2n[nH]c(=O)c3ccccc23)ccc1F)N1CCN(C(=O)C2CC2)CC1 [Olaparib] + CN(CC[C@H](CSC1=CC=CC=C1)NC2=C(C=C(C=C2)S(=O)(=O)NC(=O)C3=CC=C(C=C3)N4CCC(CC4)[C@H](C5=CC=CC=C5C6=CC=C(C=C6)Cl)O)S(=O)(=O)C(F)(F)F)CCO [AZD4320] (first compound max 10 µM, 7x7, partner max 1 µM): 0.183
2) C[C@@H](c1ccc2nccn2c1)n1nnc2ncc(-c3cnn(C)c3)nc21 [Savolitinib] + Cc1c2c(nn1C)CSCc1cc(n(C)n1)CSc1cc(c3ccccc3c1)OCCCc1c(C(=O)O)n(C)c3c-2c(Cl)ccc13 [AZD5991] (first compound max 1 µM, 7x7, partner max 1 µM): 0.189

With those in mind, consider the next compound.
[Q] Find the measured combination Emax of COc1cccc(OCCCN)c1-c1cc(Nc2cnc(C#N)cn2)n[nH]1 [Prexasertib] + CCc1c2c(nc3ccc(O)cc13)-c1cc3c(c(=O)n1C2)COC(=O)[C@]3(O)CC [SN-38] (first compound max 1 µM, 7x7, partner max 0.3 µM) and report it.
[A] 0.949

====

System: BE-13 (T-Lymphoblastic Leukemia);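 further: after 72 h of two-drug dosing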
Test: Bliss excess, mean over the matrix (fraction); higher = more synergy
PROPERTY NAME: Bliss excess
Lab note: jot down the number only; don't add units.

See these solved cases before continuing.
1) CC1(C)CCC(CN2CCN(c3ccc(C(=O)NS(=O)(=O)c4ccc(NCC5CCOCC5)c([N+](=O)[O-])c4)c(Oc4cnc5[nH]ccc5c4)c3)CC2)=C(c2ccc(Cl)cc2)C1 [Venetoclax] + C=CCn1c(=O)c2cnc(Nc3ccc(N4CCN(C)CC4)cc3)nc2n1-c1cccc(C(C)(C)O)n1 [AZD1775] (first compound max 1 µM, partner max 1 µM): 0.0227
2) N#Cc1cnc(Nc2cc(NC[C@H]3CNCCO3)c(C(F)(F)F)cn2)cn1 [SRA737] + CCc1c2c(nc3ccc(O)cc13)-c1cc3c(c(=O)n1C2)COC(=O)[C@]3(O)CC [SN-38] (first compound max 10 µM, 7x7, partner max 0.3 µM): 0.057
3) C[C@@H](c1ccc2nccn2c1)n1nnc2ncc(-c3cnn(C)c3)nc21 [Savolitinib] + Cc1c2c(nn1C)CSCc1cc(n(C)n1)CSc1cc(c3ccccc3c1)OCCCc1c(C(=O)O)n(C)c3c-2c(Cl)ccc13 [AZD5991] (first compound max 1 µM, 7x7, partner max 1 µM): 0.065

[Q] Find the measured Bliss excess of CN(C)CCCOc1ccc(-c2ccc3ncc4c(c3c2)n(C2CCOCC2)c(=O)n4C)cn1 [AZD0156] + C[C@@H]1COCCN1C2=NC(=NC(=C2)C3(CC3)[S@](=N)(=O)C)C4=C5C=CNC5=NC=C4 [AZD6738] (first compound max 1 µM, 7x7, partner max 10 µM) and report it.
[A] -0.0619

[Q] Find the measured Bliss excess of O=C(c1cc(Cc2n[nH]c(=O)c3ccccc23)ccc1F)N1CCN(C(=O)C2CC2)CC1 [Olaparib] + CN(CC[C@H](CSC1=CC=CC=C1)NC2=C(C=C(C=C2)S(=O)(=O)NC(=O)C3=CC=C(C=C3)N4CCC(CC4)[C@H](C5=CC=CC=C5C6=CC=C(C=C6)Cl)O)S(=O)(=O)C(F)(F)F)CCO [AZD4320] (first compound max 10 µM, 7x7, partner max 1 µM) and report it.
[A] 0.0096
